Source listed as patent US20210070881A1.

# MEASURED_TARGET: T1, recombinant BACE1 (BACE1 extracellular domain, R&D Systems Cat#931-AS) (UniProt P56817 22-457)
# T1 construct: extracellular domain; also called BACE1 extracellular domain protein
# T1 sequence (P56817 22-457): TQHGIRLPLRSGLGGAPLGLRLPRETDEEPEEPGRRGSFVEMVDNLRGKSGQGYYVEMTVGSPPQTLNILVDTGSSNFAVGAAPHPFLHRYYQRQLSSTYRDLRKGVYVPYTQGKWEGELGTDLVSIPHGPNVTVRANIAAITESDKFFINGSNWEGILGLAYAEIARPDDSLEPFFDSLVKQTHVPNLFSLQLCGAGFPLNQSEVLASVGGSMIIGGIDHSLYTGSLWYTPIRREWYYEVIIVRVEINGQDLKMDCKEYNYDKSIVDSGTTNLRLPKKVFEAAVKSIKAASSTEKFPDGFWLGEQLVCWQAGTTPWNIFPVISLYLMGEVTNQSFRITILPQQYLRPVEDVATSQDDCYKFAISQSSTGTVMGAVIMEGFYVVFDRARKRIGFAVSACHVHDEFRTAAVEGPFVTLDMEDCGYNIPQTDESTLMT
# ASSAY_SUMMARY: SPR Biacore
ENDPOINT_NAME: pKd
Just the number, please; pKd means minus log10 of the concentration in mol/L.

{"BINDER": "hu2H8v1 (antibody, V domains shown, humanized; also called hu2H8_HC1 + hu2H8_LC1) VH: QVQLVQSGAEVKKPGASVKVSCKASGYTFTNFWIHWVRQAPGQGLEWMGMIDPSDSYTKYNQKFKARVTMTRDTSTSTTYMELSSLRSEDTAVYYCARSGVAFPYWGQGTLVTVSS VL: DIQMTQSPSSLSASVGDRVTITCKASQDVGRNVAWYQQKPGKAPKLLIYSASHRYSGVPSRFSGSGSGTDFTLTISSLQPEDFATYYCQQYNSYPYTFGQGTKVEIK", "pKd": 6.87}

Exercise: Consider the binder hu2H8v24 (antibody, V domains shown, humanized; also called hu2H8_HC7 + hu2H8_LC4) VH: QVQLVQSGAEVKKPGASVKVSCKASGYTFTNFWIHWLRQAPGQGLEWMGMIDPSDSYTKYNQKFKARATLTVDTSTSTTYMELSSLRSEDTAVYYCARSGVAFPYWGQGTLVTVSS VL: DIQMTQSPSSLSASVGDRVTITCKASQDVGRNVAWYQQKPGKSPKSLIYSASHRYSGVPSRFSGSGSGTDFTLTISSLQPEDFATYYCQQYNSYPYTFGQGTKVEIK and give its measured pKd.
Solution: 7.13

Exercise: One more binder: hu2H8v17 (antibody, V domains shown, humanized; also called hu2H8_HC6 + hu2H8_LC3) VH: QVQLVQSGAEVKKPGASVKVSCKASGYTFTNFWIHWVRQAPGQGLEWMGMIDPSDSYTKYNQKFKARATLTVDTSTSTVYMELSSLRSEDTAVYYCARSGVAFPYWGQGTLVTVSS VL: DIQMTQSPSSLSASVGDRVTITCKASQDVGRNVAWYQQKPGKAPKSLIYSASHRYSGVPSRFSGSGSGTDFTLTISSLQPEDFATYYCQQYNSYPYTFGQGTKVEIK
Solution: 7.92

Exercise: One more binder: hu2H8v29 (antibody, V domains shown, humanized; also called hu2H8_HC6 + hu2H8_LC5) VH: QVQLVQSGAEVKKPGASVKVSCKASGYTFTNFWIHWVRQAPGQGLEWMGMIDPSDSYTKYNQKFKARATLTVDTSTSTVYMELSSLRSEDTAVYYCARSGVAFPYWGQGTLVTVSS VL: DIQMTQSPSSLSASVGDRVTITCKASQDVGRNVAWYQQKPGKSPKSLIYSASHRYSGVPSRFSGSGSGTDFTLTISSLQPEDFATYFCQQYNSYPYTFGQGTKVEIK
Solution: 7.92

Exercise: One more binder: hu2H8v10 (antibody, V domains shown, humanized) VH: QVQLVQSGAEVKKPGASVKVSCKASGYTFTNFWIHWVRQAPGQGLEWMGMIDPSDSYTKYNQKFKARATLTRDTSTSTVYMELSSLRSEDTAVYYCARSGVAFPYWGQGTLVTVSS VL: DIQMTQSPSSLSASVGDRVTITCKASQDVGRNVAWYQQKPGKSPKLLIYSASHRYSGVPSRFSGSGSGTDFTLTISSLQPEDFATYYCQQYNSYPYTFGQGTKVEIK
Solution: 6.80
